- SYSTEM_NAME: T1, Human CXCR2 (human, UniProt P25025 1-360)
- T1 construct: Some cell lines carry an N-terminal 3xHA tag; also called hCXCR2; huCXCR2
- T1 sequence: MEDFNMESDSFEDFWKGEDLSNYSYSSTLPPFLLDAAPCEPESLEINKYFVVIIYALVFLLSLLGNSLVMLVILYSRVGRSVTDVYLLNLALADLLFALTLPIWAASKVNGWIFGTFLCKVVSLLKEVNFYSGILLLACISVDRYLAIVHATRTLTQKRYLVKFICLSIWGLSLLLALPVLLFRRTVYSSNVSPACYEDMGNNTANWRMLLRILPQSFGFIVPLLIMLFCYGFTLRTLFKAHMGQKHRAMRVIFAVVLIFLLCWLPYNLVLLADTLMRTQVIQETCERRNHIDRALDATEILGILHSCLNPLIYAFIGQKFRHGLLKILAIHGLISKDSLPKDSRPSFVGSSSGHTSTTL
- RUN_DESCRIPTION: FACS, periplasmic extract vs FMAT Blue Gro-α
PROPERTY_MEASURED: FACS Gro-α competition (% inhibition)
Answer by giving the amount and then stating its unit.

>  <BINDER>
126B11 (VHH, Tested as periplasmic extract only; not shown: C-terminal c-myc tag and His6 tag coded by the vector) VHH: EVQLVESGGGLVQAGGSLTLSCAVSGSSFRINTMGWYRRAPGKQRELVAARDRGGYINYVDSVKGRFTVSRDNAKPTMYLQMNSLKPEDTAVYYCHAGTQDRTGRNFDHWGQGTQVTVSS

>  <FACS Gro-α competition (% inhibition)>
36.9%

$$$$

For each listed entry, give its FACS Gro-α competition (% inhibition).
1. 145D3 (VHH, Tested as periplasmic extract only; also called 145D03; not shown: C-terminal c-myc tag and His6 tag coded by the vector) VHH: EVQLVESGGGLVQAGGSLSLSCAASGLIFRLSGMAWYRQAPGRQREWVAVLTKDGTLHYADPVKGRFTISRNNAENTWYLQMNSLKPEDTAIYYCNTGRYWGQGTQVTVSS
2. 137B7 (VHH, Tested as periplasmic extract (pAX50) and as purified His6-tagged protein (pAX100); also called 137B07; not shown: C-terminal c-myc tag and His6 tag coded by the vector) VHH: EVQLVESGGGLVQPGGSVRLSCVASGIIFRLSALGWTRQGPGKAREWVAGINSDGTTNYADPVKGRFTISRDNAKNTIYLHMDMLKPEDTAVYYCASGKYRGQGTQVTVSS
3. 163D2 (VHH, Tested as periplasmic extract (pAX50) and as purified His6-tagged protein (pAX100); also called 163D02; not shown: C-terminal c-myc tag and His6 tag coded by the vector) VHH: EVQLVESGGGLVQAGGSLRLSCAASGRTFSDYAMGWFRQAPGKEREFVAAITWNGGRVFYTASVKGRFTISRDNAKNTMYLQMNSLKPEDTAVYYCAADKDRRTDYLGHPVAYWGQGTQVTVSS

1. 77.9%
2. 90.3%
3. 86.8%
